- Test system: SK-OV-3 ovarian
- assay name: NCI-60 one-dose screen, 48 h (100 = growth as untreated, 0 = no growth, -100 = all killed)
- measurement parameters: 10 µM unless noted
The panel holds about 83,000 compounds, 20% with a hit somewhere; the sample as a whole holds those more often.
observation type: growth (%)
Give bare numbers, in %.

Below, 4 compounds whose answers are already recorded.
[
  {
    "compound": "O=C(/C(=N/O)S(=O)(=O)c1ccccc1)c1cccs1",
    "observation type": "growth",
    "number": 94
  },
  {
    "compound": "COc1ccc(/C=C2\\NC(=S)NC2=O)cc1",
    "observation type": "growth",
    "number": 83.8
  },
  {
    "compound": "CN(CC(=O)N(Cc1ccc(C2CCCCC2)cc1)c1ccc(C(=O)O)cc1)S(=O)(=O)c1c(F)c(F)c(F)c(F)c1F",
    "observation type": "growth",
    "number": 106
  },
  {
    "compound": "O=C1OCC/C1=C\\OCCCO/C=C1\\CCOC1=O",
    "observation type": "growth",
    "number": 114
  }
]

Give growth for all compounds that follow.
1. NNC(=O)C1CC2c3ccccc3C1c1ccccc12 (configuration not stated)
2. CC(C)(C)c1cc(O)c(O)c(C(C)(C)C)c1
3. c1ccc(-c2nnc(Nc3nnc(-c4ccccc4)s3)s2)cc1
4. CCOC(=O)c1c2c(c(C)n1Cc1ccc(OC)cc1)-c1nc(N)ncc1CC2
5. CCN(CC)c1ccc(C(O)C2=CC(=O)c3ccccc3C2=O)cc1 (configuration not stated)
6. Cc1ccc(C=C2C(Cl)=C(Cl)C(Cl)=C2Cl)cc1
7. COc1ccc(C2CC(c3ccc(OC)c(OC)c3)=NN2C(=O)c2cc(OC)c(OC)c(OC)c2)cc1 (configuration not stated)

OUTPUT:
1: 112; 2: 67; 3: 96.8; 4: 107; 5: 73.1; 6: -38.5; 7: 30.3

Give growth for all compounds that follow.
1. O=C(O)c1ccc(NC(=O)c2ccc(Nc3ccnc(C(F)(F)F)c3)cc2)cc1
2. COc1cc(NC(=O)c2cc3ccccc3cc2O)c(OC)cc1Cl
3. COc1ccc2c(c1)C(=O)c1c-2c(OCCN(C)C)nc2cc(OC)ccc12
4. CC(=O)Nc1ccc2c(c1)Cc1c(F)c(F)c(F)c(F)c1-2
5. COc1ccc(C2CC(c3cccc(Nc4ccnc5cc(Cl)ccc45)c3)=NN2C=O)cc1 (configuration not stated)
6. COc1ccc(/C=C2\COc3ccc(O)c(O)c3C2=O)cc1OC
7. Cc1[nH]n(C(N)=S)c(=O)c1N=Nc1ccc(F)c(Cl)c1

OUTPUT:
98.9
-14.9
23.9
113
19
40.2
280

Give growth for all compounds that follow.
1. COc1ccc2c3c(c(OCCCN(C)C)nc2c1)-c1ccc(Cl)cc1C3=O
2. COC(=O)CCC1=C(C)C(C)=N/C1=C\c1[nH]c(-c2ccc[nH]2)cc1OC
3. COc1ccc(-n2nc3c(c2-c2ccc(OC)c(OC)c2)-c2oncc2CC3)cc1
4. COc1ccc(Cn2cc3c(c2-c2ccccc2)CCc2cncnc2-3)cc1

OUTPUT:
55.5
16.2
106
76.8

----------
- System: SF-539 CNS
- assay name: NCI-60 one-dose screen, 48 h
- measurement parameters: 10 µM unless noted
About 83,000 compounds went through this panel and 20% of them were active in at least one assay; those are over-represented in the sample as a whole. Calls of active or inactive are those of the source. The calls were made as follows: active = growth percent below 10; inactive = the rest.
Please state which outcome applies, choosing from yes (active), no (inactive)

[
  {
    "compound": "CC12CCCCC1C(C(N)=O)C(=O)O2 (configuration not stated)",
    "cat": "no"
  },
  {
    "compound": "O=C1OCC/C1=C\\OCCCO/C=C1\\CCOC1=O",
    "cat": "no"
  },
  {
    "compound": "O=[N+]([O-])c1cnc(Sc2ccncn2)c([N+](=O)[O-])c1",
    "cat": "no"
  },
  {
    "compound": "CCOc1cccc(C2CC(=O)Nc3cc4c(cc32)OCO4)c1 (configuration not stated)",
    "cat": "no"
  },
  {
    "compound": "COc1ccc2nc(NC(=O)c3cc(-c4ccc(F)cc4)n4nc(-c5ccccc5)cc4n3)sc2c1",
    "cat": "no"
  }
]

Attention now shifts to the item below.
INPUT: Recorded test outcome, item c1coc([C@@H]2C[C@@H]3Cc4ccc5ccccc5c4N2O3)c1
OUTPUT: no
